System under test: PRKCQ (human)
Measurement notes: KINOMEscan competition binding
Condition set: compound 10.0 µM
Quantity: kinase still bound, per cent of control (%)
Numbers only, in %.

• COc1cc(C(=O)N2CCC(N3CCN(C)CC3)CC2)ccc1Nc1ncc2c(n1)N(C)c1ccccc1C(=O)N2C = 100
• N#CCNC(=O)c1ccc(-c2ccnc(Nc3ccc(N4CCOCC4)cc3)n2)cc1 = 100

We next turn to a different compound, shown below.
input: So what's the measured kinase still bound, per cent of control for this one? `Cc1n[nH]c2ccc(-c3cncc(OC[C@@H](N)Cc4c[nH]c5ccccc45)c3)cc12`
output: 0

---

Answer each item with its documented kinase still bound, per cent of control.
System under test: UniProtKB P43405
Measurement notes: KINOMEscan competition binding
Condition set: compound 10.0 µM
One number for each entry, in %.

- CNC(=O)c1ccc(Nc2cc(Nc3ccccc3S(=O)(=O)C(C)C)c3cc[nH]c3n2)nc1: 2.6
- COc1cc(C(=O)N2CCC(N3CCN(C)CC3)CC2)ccc1Nc1ncc2c(n1)N(C)c1ccccc1C(=O)N2C: 100
- CN(C)C/C=C/C(=O)Nc1ccc(C(=O)Nc2cccc(Nc3nccc(-c4cccnc4)n3)c2)cc1: 23
- N#CCNC(=O)c1ccc(-c2ccnc(Nc3ccc(N4CCOCC4)cc3)n2)cc1: 32
- COc1cc2ncnc(-n3nc(-c4ccccn4)nc3N)c2cc1OC: 24

Could you report kinase still bound, per cent of control for every entry in the following list?
1. NC(=O)Nc1cc(-c2cccc(F)c2)sc1C(=O)N[C@@H]1CCCNC1
2. COCC(=O)NC/C=C/c1ccc2ncnc(Nc3ccc(Oc4ccc(C)nc4)c(C)c3)c2c1
3. O=c1cc(N2CCOCC2)oc2c(-c3cccc4c3sc3ccccc34)cccc12
4. CNC(=O)c1cc(Oc2ccc(NC(=O)Nc3ccc(Cl)c(C(F)(F)F)c3)cc2)ccn1
5. C=CC(=O)Nc1cc(-n2c(=O)ccc3cnc4ccc(-c5cn[nH]c5)cc4c32)ccc1C
6. Cc1n[nH]c2ccc(-c3cncc(OC[C@@H](N)Cc4c[nH]c5ccccc45)c3)cc12
7. C=CC(=O)Nc1ccc(CN(C(=O)Nc2c(Cl)c(OC)cc(OC)c2Cl)c2cc(Nc3ccc(N4CCN(C)CC4)cc3)ncn2)cc1

output:
1. 0.05
2. 100
3. 100
4. 88
5. 100
6. 100
7. 100

Report kinase still bound, per cent of control for every entry below.
1. CCN1CCN(C(=O)Cc2ccc(Nc3ncc(F)c(Nc4ccc(C(=O)Nc5ccccc5Cl)cc4)n3)cc2)CC1
2. COc1ccc(N(C(=O)Oc2c(C)cccc2C)c2ccnc(Nc3ccc(N4CCN(C)CC4)cc3)n2)c(OC)c1
3. CCN(CC)CCCCNc1ncc2c(n1)N(C)C(=O)N(c1c(Cl)c(OC)cc(OC)c1Cl)C2
4. O=C1NC(=O)/C(=C/c2ccc3nccc(-c4ccncc4)c3c2)S1

output:
1. 33
2. 1.4
3. 100
4. 62

Quick batch: kinase still bound, per cent of control for everything below.
1. CCN(CC)CCCCNc1ncc2cc(-c3cc(OC)cc(OC)c3)c(NC(=O)NC(C)(C)C)nc2n1
2. COc1cc(N2CCN(C)CC2)ccc1Nc1ncc2c(n1)N(C)c1ccccc1C(=O)N2C
3. O=C(Nc1cccc(Nc2ncc(Br)c(NCCc3cnc[nH]3)n2)c1)N1CCCC1
4. CS(=O)(=O)N1CCN(Cc2cc3nc(-c4cccc5[nH]ncc45)nc(N4CCOCC4)c3s2)CC1
5. COc1cc2ncn(-c3cc(OCc4ccccc4C(F)(F)F)c(C(N)=O)s3)c2cc1OC

output:
1. 100
2. 100
3. 0.95
4. 100
5. 72

---

System under test: UniProtKB P53350
Sequence (P53350 whole entry, looked up): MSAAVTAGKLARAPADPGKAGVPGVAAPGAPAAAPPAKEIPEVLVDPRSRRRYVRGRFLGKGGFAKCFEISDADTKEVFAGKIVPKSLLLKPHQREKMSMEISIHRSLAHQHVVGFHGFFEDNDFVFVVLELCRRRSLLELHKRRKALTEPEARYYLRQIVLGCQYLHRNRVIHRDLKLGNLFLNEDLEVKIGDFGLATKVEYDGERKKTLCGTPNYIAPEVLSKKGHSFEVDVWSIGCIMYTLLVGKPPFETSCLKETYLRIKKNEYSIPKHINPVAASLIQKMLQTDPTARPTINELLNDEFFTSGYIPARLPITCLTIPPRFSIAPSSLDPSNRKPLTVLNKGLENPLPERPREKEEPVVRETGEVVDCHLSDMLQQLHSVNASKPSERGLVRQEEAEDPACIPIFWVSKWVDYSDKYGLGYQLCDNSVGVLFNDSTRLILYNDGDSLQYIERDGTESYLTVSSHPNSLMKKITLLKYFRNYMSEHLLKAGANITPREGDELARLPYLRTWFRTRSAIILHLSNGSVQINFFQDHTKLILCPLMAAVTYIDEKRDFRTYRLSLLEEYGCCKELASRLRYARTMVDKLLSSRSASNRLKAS
Measurement notes: KINOMEscan competition binding
Condition set: compound 10.0 µM
True if kinase still bound, per cent of control is below 80%. False if not; exact matches included in False.

Take a look at these entries with their results.
• O=C(Nc1cccc(Nc2ncc(Br)c(NCCc3cnc[nH]3)n2)c1)N1CCCC1 = True
• COc1cc2ncn(-c3cc(OCc4ccccc4C(F)(F)F)c(C(N)=O)s3)c2cc1OC = True
• COc1cc(N2CCN(C)CC2)ccc1Nc1ncc2c(n1)N(C)c1ccccc1C(=O)N2C = True
• O=C1NC(=O)/C(=C/c2ccc3nccc(-c4ccncc4)c3c2)S1 = True
• CCN1CCN(C(=O)Cc2ccc(Nc3ncc(F)c(Nc4ccc(C(=O)Nc5ccccc5Cl)cc4)n3)cc2)CC1 = False

input: Criterion: kinase still bound, per cent of control strictly below 80%. Is it met by `Cc1n[nH]c2ccc(-c3cncc(OC[C@@H](N)Cc4c[nH]c5ccccc45)c3)cc12` ?
output: False

input: Next compound: `CCN(CC)CCCCNc1ncc2c(n1)N(C)C(=O)N(c1c(Cl)c(OC)cc(OC)c1Cl)C2`
output: False

---

System under test: CLK1 (human)
Measurement notes: KINOMEscan competition binding
Condition set: compound 10.0 µM
Quantity: kinase still bound, per cent of control

Worked examples follow.
* COc1cc(N2CCN(C)CC2)ccc1Nc1ncc2c(n1)N(C)c1ccccc1C(=O)N2C | 100%
* CCN1CCN(C(=O)Cc2ccc(Nc3ncc(F)c(Nc4ccc(C(=O)Nc5ccccc5Cl)cc4)n3)cc2)CC1 | 22%
* N#CCNC(=O)c1ccc(-c2ccnc(Nc3ccc(N4CCOCC4)cc3)n2)cc1 | 9.6%
* COCC(=O)NC/C=C/c1ccc2ncnc(Nc3ccc(Oc4ccc(C)nc4)c(C)c3)c2c1 | 90%
* COc1cc(C(=O)N2CCC(N3CCN(C)CC3)CC2)ccc1Nc1ncc2c(n1)N(C)c1ccccc1C(=O)N2C | 28%
* COc1cc2ncn(-c3cc(OCc4ccccc4C(F)(F)F)c(C(N)=O)s3)c2cc1OC | 36%
* CCN(CC)CCCCNc1ncc2cc(-c3cc(OC)cc(OC)c3)c(NC(=O)NC(C)(C)C)nc2n1 | 100%
* CNC(=O)c1cc(Oc2ccc(NC(=O)Nc3ccc(Cl)c(C(F)(F)F)c3)cc2)ccn1 | 23%

input: Observed kinase still bound, per cent of control on CLK1 (human) for `NC(=O)Nc1cc(-c2cccc(F)c2)sc1C(=O)N[C@@H]1CCCNC1` , please.
output: 1.2%

---

Answer each item with its documented kinase still bound, per cent of control.
System under test: FGFR4 (human)
Measurement notes: KINOMEscan competition binding
Condition set: compound 10.0 µM
One number for each entry, in %.

Take a look at these entries with their results.
• N#CCNC(=O)c1ccc(-c2ccnc(Nc3ccc(N4CCOCC4)cc3)n2)cc1 = 91
• NC(=O)Nc1cc(-c2cccc(F)c2)sc1C(=O)N[C@@H]1CCCNC1 = 13
• C=CC(=O)Nc1ccc(CN(C(=O)Nc2c(Cl)c(OC)cc(OC)c2Cl)c2cc(Nc3ccc(N4CCN(C)CC4)cc3)ncn2)cc1 = 0.1
• O=c1cc(N2CCOCC2)oc2c(-c3cccc4c3sc3ccccc34)cccc12 = 99
• COc1ccc(N(C(=O)Oc2c(C)cccc2C)c2ccnc(Nc3ccc(N4CCN(C)CC4)cc3)n2)c(OC)c1 = 7.4

// each listed molecule needs a value for kinase still bound, per cent of control
1. COc1cc2ncn(-c3cc(OCc4ccccc4C(F)(F)F)c(C(N)=O)s3)c2cc1OC
2. COCC(=O)NC/C=C/c1ccc2ncnc(Nc3ccc(Oc4ccc(C)nc4)c(C)c3)c2c1
3. CS(=O)(=O)N1CCN(Cc2cc3nc(-c4cccc5[nH]ncc45)nc(N4CCOCC4)c3s2)CC1
4. CCN1CCN(C(=O)Cc2ccc(Nc3ncc(F)c(Nc4ccc(C(=O)Nc5ccccc5Cl)cc4)n3)cc2)CC1

output:
[77, 100, 100, 71]

---

System under test: STK25 (human) (UniProt O00506)
Sequence (O00506 whole entry, looked up): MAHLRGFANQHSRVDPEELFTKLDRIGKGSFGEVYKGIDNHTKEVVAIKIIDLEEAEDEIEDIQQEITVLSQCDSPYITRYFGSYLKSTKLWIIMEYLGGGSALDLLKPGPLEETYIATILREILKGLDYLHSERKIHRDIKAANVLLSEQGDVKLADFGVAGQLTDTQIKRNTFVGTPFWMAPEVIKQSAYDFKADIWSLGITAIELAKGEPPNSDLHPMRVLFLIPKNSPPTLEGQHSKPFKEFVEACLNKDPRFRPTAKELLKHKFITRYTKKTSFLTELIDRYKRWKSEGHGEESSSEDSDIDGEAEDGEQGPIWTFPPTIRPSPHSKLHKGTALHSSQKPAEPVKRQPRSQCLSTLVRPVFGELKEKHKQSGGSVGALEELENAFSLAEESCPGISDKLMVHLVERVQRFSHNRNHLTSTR
Measurement notes: KINOMEscan competition binding
Condition set: compound 10.0 µM
Could you please report measured kinase still bound, per cent of control for the items listed next?

// known answers, use as guide
* CNC(=O)c1cc(Oc2ccc(NC(=O)Nc3ccc(Cl)c(C(F)(F)F)c3)cc2)ccn1 | 80%
* CN(C)C/C=C/C(=O)Nc1ccc(C(=O)Nc2cccc(Nc3nccc(-c4cccnc4)n3)c2)cc1 | 83%
* O=C(Nc1cccc(Nc2ncc(Br)c(NCCc3cnc[nH]3)n2)c1)N1CCCC1 | 30%
* O=C1NC(=O)/C(=C/c2ccc3nccc(-c4ccncc4)c3c2)S1 | 75%
* CNC(=O)c1ccc(Nc2cc(Nc3ccccc3S(=O)(=O)C(C)C)c3cc[nH]c3n2)nc1 | 100%
* N#CCNC(=O)c1ccc(-c2ccnc(Nc3ccc(N4CCOCC4)cc3)n2)cc1 | 71%
* Cc1n[nH]c2ccc(-c3cncc(OC[C@@H](N)Cc4c[nH]c5ccccc45)c3)cc12 | 100%
* CCN1CCN(C(=O)Cc2ccc(Nc3ncc(F)c(Nc4ccc(C(=O)Nc5ccccc5Cl)cc4)n3)cc2)CC1 | 35%
* COc1cc2ncnc(-n3nc(-c4ccccn4)nc3N)c2cc1OC | 33%
* C=CC(=O)Nc1ccc(CN(C(=O)Nc2c(Cl)c(OC)cc(OC)c2Cl)c2cc(Nc3ccc(N4CCN(C)CC4)cc3)ncn2)cc1 | 100%

Here are 6 compounds. What values of kinase still bound, per cent of control were reported for them?
1. CCN(CC)CCCCNc1ncc2cc(-c3cc(OC)cc(OC)c3)c(NC(=O)NC(C)(C)C)nc2n1
2. NC(=O)Nc1cc(-c2cccc(F)c2)sc1C(=O)N[C@@H]1CCCNC1
3. O=c1cc(N2CCOCC2)oc2c(-c3cccc4c3sc3ccccc34)cccc12
4. COc1ccc(N(C(=O)Oc2c(C)cccc2C)c2ccnc(Nc3ccc(N4CCN(C)CC4)cc3)n2)c(OC)c1
5. COc1cc(N2CCN(C)CC2)ccc1Nc1ncc2c(n1)N(C)c1ccccc1C(=O)N2C
6. C[C@@H](Oc1cc(-c2cnn(C3CCNCC3)c2)cnc1N)c1c(Cl)ccc(F)c1Cl

output:
["9.4%", "0%", "59%", "61%", "100%", "65%"]

Give kinase still bound, per cent of control for each of the items listed below.
1. COCC(=O)NC/C=C/c1ccc2ncnc(Nc3ccc(Oc4ccc(C)nc4)c(C)c3)c2c1
2. COc1cc(C(=O)N2CCC(N3CCN(C)CC3)CC2)ccc1Nc1ncc2c(n1)N(C)c1ccccc1C(=O)N2C
3. CCN(CC)CCCCNc1ncc2c(n1)N(C)C(=O)N(c1c(Cl)c(OC)cc(OC)c1Cl)C2
4. CS(=O)(=O)N1CCN(Cc2cc3nc(-c4cccc5[nH]ncc45)nc(N4CCOCC4)c3s2)CC1
5. C=CC(=O)Nc1cc(-n2c(=O)ccc3cnc4ccc(-c5cn[nH]c5)cc4c32)ccc1C

output:
94%
68%
100%
100%
70%
